# method.summary: retention time on BEH HILIC column (20 min gradient, 0.4 mL/min); higher = later elution
# run.parameters: ionization: ESI negative; LC: HILIC, pH 9.0 ammonium acetate
assay.endpoint: retention time on BEH HILIC column (min)

P = O=C(O)c1cc(O)c2cccc(O)c2n1
Q = CC(=O)SCCNC(=O)CCNC(=O)[C@H](O)C(C)(C)COP(=O)(O)OP(=O)(O)OC[C@H]1O[C@@H](n2cnc3c(N)ncnc32)[C@H](O)[C@@H]1OP(=O)(O)O
R = O=C(O)CNC(=O)c1ccccc1
S = CCCCCCCCCCCCCCCC(=O)O
T = CC(C)[C@H](N)C(=O)O
Query: Output the listed items in decreasing order of retention time on BEH HILIC column. List the labels, following the order given in the request.
Result: Q, T, P, R, S
(Q: 11.8 min, T: 6.85 min, P: 4.65 min, R: 2.21 min, S: 0.77 min)

A = C/C(=C/C(=O)O)C(=O)O
B = O=C(O)C[C@H](O)C(=O)O
Query: Given the listed items, does A or B have the lesser reported retention time on BEH HILIC column? Answer = label.
Result: A

1 = Nc1nc(=O)c2[nH]cnc2[nH]1
2 = N[C@@H](Cc1ccc(O)cc1)C(=O)O
3 = CCCCC/C=C\C/C=C\C/C=C\C/C=C\CCCC(=O)O
Query: Order the entries by their reported retention time on BEH HILIC column, beginning at the minimum. List the labels, following the order given in the request.
Result: 3, 1, 2
(3: 0.72 min, 1: 3.65 min, 2: 6.79 min)

P = CCCC(=O)O
Q = O=C(O)c1cccnc1C(=O)O
Query: Between the two listed entries P and Q , which has its retention time on BEH HILIC column at the higher number? Answer = label.
Result: Q
(Q: 12.7 min, P: 3.72 min)

1 = CCC(C)CCC(=O)O (configuration not stated)
2 = NCCS(=O)(=O)O
3 = O=P(O)(O)OC[C@H]1O[C@@](O)(CO)[C@@H](O)[C@H](O)[C@@H]1O [D-sedoheptulose 7-phosphate]
Query: Order the entries by their reported retention time on BEH HILIC column, beginning at the minimum. List the labels, following the order given in the request.
Result: 1, 2, 3

A = NCCc1ccc(O)c(O)c1
B = O=P(O)(O)O[C@H]1O[C@H](CO)[C@H](O)[C@H](O)[C@H]1O [Galactose 1-phosphate]
C = CCCCCC/C=C\CCCCCCCC(=O)O
Query: Order the entries by their reported retention time on BEH HILIC column, beginning at the minimum. List the labels, following the order given in the request.
Result: C, A, B
(C: 1.03 min, A: 4.35 min, B: 11.8 min)

A = O=C(O)[C@H]1O[C@H](O)[C@H](O)[C@@H](O)[C@@H]1O
B = OC[C@H]1OC(O)[C@H](O)[C@@H]1O (some centres not stated)
Query: Given the listed items, does A or B have the lesser reported retention time on BEH HILIC column? Answer = label.
Result: B

P = O=C(O)[C@@H]1CCCN1
Q = Nc1ncnc2nc[nH]c12
Query: Given the listed items, does P or Q have the lesser reported retention time on BEH HILIC column? Answer = label.
Result: Q

###

# method.summary: retention time on BEH HILIC column (20 min gradient, 0.4 mL/min); higher = later elution
# run.parameters: ionization: ESI positive; LC: HILIC, pH 3.0 ammonium formate
assay.endpoint: retention time on BEH HILIC column (min)

> print(dat)
                                   compound                      assay.endpoint  value.measured
1               COc1cc([C@H](O)C(=O)O)ccc1O  retention time on BEH HILIC column            2.72
2  Nc1nc(=O)c2nc(CNc3ccc(C(=O)N[C@@H](CCC(=O)O)C(=O)O)cc3)cnc2[nH]1  retention time on BEH HILIC column             6.7

1 = C[N+](C)(C)CC(=O)O
2 = O=C(O)c1ccc(O)cc1 [4-hydroxybenzoic acid]
3 = C/C(=C\C(=O)O)CC(=O)O
4 = O=C(O)c1cc(=O)c2ccccc2[nH]1
Query: Order the entries by their reported retention time on BEH HILIC column, beginning at the minimum. List the labels, following the order given in the request.
Result: 2, 3, 4, 1
(2: 0.73 min, 3: 1.45 min, 4: 4.01 min, 1: 7.16 min)

###

# method.summary: collision cross section (TWIMS, N2) of ion [M+H]+; higher = larger gas-phase ion cross section
# run.parameters: ionization: ESI positive; LC: HILIC, pH 3.0 ammonium formate
assay.endpoint: collision cross section (Å²)

molecule	unit.name	collision cross section
O=c1[nH]c(=O)c2[nH]c(=O)[nH]c2[nH]1	Å²	133.36
N=C(N)NCCC[C@H](N)C(=O)O	Å²	136.63

a = Nc1c(C(=O)O)c2nc3c(C(=O)O)cccc3oc-2cc1=O [Cinnavalininate]
b = Cc1cc2nc3c(=O)[nH]c(=O)nc-3n(C[C@H](O)[C@H](O)[C@H](O)COP(=O)(O)OP(=O)(O)OC[C@H]3O[C@@H](n4cnc5c(N)ncnc54)[C@H](O)[C@@H]3O)c2cc1C
Query: Between the two listed entries a and b , which has its collision cross section at the higher number? Answer = label.
Result: b
(b: 250.07 Å², a: 156.61 Å²)

###

# method.summary: retention time on BEH HILIC column (20 min gradient, 0.4 mL/min); higher = later elution
# run.parameters: ionization: ESI negative; LC: HILIC, pH 9.0 ammonium acetate
assay.endpoint: retention time on BEH HILIC column (min)

Example cases with answers are listed next.
> print(dat)
                                   molecule  value.measured
1  CC(O)C(C)C(=O)O (stereo not drawn) [3-hydroxy-2-methylbutanoic acid]             1.1
2  O=c1ccn([C@@H]2O[C@H](CO)[C@@H](O)[C@H]2O)c(=O)[nH]1            1.47
3  C=C1CC[C@H](O)C/C1=C/C=C1\CCC[C@]2(C)[C@@H]([C@H](C)CCCC(C)C)CC[C@@H]12            17.5
4  O=C(O)[C@@H]1C[C@@H](O)CN1 [Hydroxyproline]            7.55
5           OC[C@@H](O)[C@@H](O)[C@@H](O)CO            3.57

I = CCCCCCCC(=O)O
II = OC[C@@H](O)[C@@H](O[C@H]1O[C@H](CO)[C@@H](O)[C@H](O)[C@H]1O)[C@H](O)[C@@H](O)CO
III = N[C@@H](CCC(=O)N[C@@H](CSSC[C@H](NC(=O)CC[C@H](N)C(=O)O)C(=O)NCC(=O)O)C(=O)NCC(=O)O)C(=O)O
IV = O=C1O[C@H]([C@@H](O)CO)C(O)=C1O
V = NC(=O)NC1NC(=O)NC1=O (stereo not drawn)
Query: Rank entries according to their retention time on BEH HILIC column, from the largest number down. List the labels, following the order given in the request.
Result: III, II, V, IV, I
(III: 12.5 min, II: 6.83 min, V: 1.8 min, IV: 1.17 min, I: 0.77 min)

P = CCCCC/C=C\C/C=C\CCCCCCCC(=O)O
Q = O=c1cc[nH]c(=O)[nH]1
Query: Between the two listed entries P and Q , which has its retention time on BEH HILIC column at the higher number? Answer = label.
Result: Q
(Q: 1.08 min, P: 0.73 min)

###

# method.summary: retention time on BEH HILIC column (20 min gradient, 0.4 mL/min); higher = later elution
# run.parameters: ionization: ESI negative; LC: HILIC, pH 9.0 ammonium acetate
assay.endpoint: retention time on BEH HILIC column (min)

Example cases with answers are listed next.
> print(dat)
                                   compound  unit.name  value.measured
1  Nc1nc(=O)c2nc(CNc3ccc(C(=O)N[C@@H](CCC(=O)O)C(=O)O)cc3)cnc2[nH]1        min            11.4
2  Cc1cc2nc3c(=O)[nH]c(=O)nc-3n(C[C@H](O)[C@H](O)[C@H](O)CO)c2cc1C        min            3.11
3         N[C@@H](CCSC[C@H](N)C(=O)O)C(=O)O        min            11.2
4                       NCCCC[C@H](N)C(=O)O        min            11.6

I = CCCCCCC(=O)OC [Methyl heptanoate]
II = C[C@H](N)C(=O)O
Query: Given the listed items, does I or II have the lesser reported retention time on BEH HILIC column? Answer = label.
Result: I
(I: 1.13 min, II: 7.42 min)

meta.source: the supplement of paper PMC11127212
